B1: Steroid hormone receptor ERR2, residues 100 to 176; numbered along this chain, O95718 (parent)
chain: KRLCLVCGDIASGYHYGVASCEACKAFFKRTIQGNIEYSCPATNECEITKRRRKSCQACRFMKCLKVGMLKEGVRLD

variants of: B1; assay: abundance fitness (aPCA) (normalised: wild type 0, dead -1); higher = more abundant; growth selection in yeast, the domain comes from the species named; conditions: Homo sapiens
Parameter measured: abundance fitness

abundance fitness measured on K25I = 0.091

abundance fitness measured on S12A = 0.031

abundance fitness measured on A42L = -0.064

abundance fitness measured on Q33I = -0.697

abundance fitness measured on R60P = -0.798

abundance fitness measured on S20P = -0.321

abundance fitness measured on T49G = -0.041

abundance fitness measured on N44R = 0.011

abundance fitness measured on A42F = -0.209

abundance fitness measured on F61T = -0.759

abundance fitness measured on R2P = -0.502
